All values here come from the supplement of paper PMC10567573.

B1: FUT8 (parent)
chain: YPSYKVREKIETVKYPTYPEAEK

# Variants of: B1
# assayExplanation: protein stability index of a GFP-peptide fusion (GPS, HEK-293T) (PSI 1-6); higher = more stable;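 further: lentivirally expressed fusions sorted by FACS into six bins by GFP to DsRed ratio, PSI derived from sequencing read proportions per bin multiplied by bin number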
# measurementConditions: c terminus: native
As shown below, each of these variants has a reported protein stability index value.
reportedMetric: protein stability index

{"mutantName": "T12C", "reportedMetric": "protein stability index", "resultNumber": 4.17}
{"mutantName": "E22Q", "reportedMetric": "protein stability index", "resultNumber": 4.44}
{"mutantName": "Y18D", "reportedMetric": "protein stability index", "resultNumber": 4.47}
{"mutantName": "Y18M", "reportedMetric": "protein stability index", "resultNumber": 4.15}
{"mutantName": "A21Y", "reportedMetric": "protein stability index", "resultNumber": 3.67}
{"mutantName": "P16C", "reportedMetric": "protein stability index", "resultNumber": 3.7}
{"mutantName": "Y15M", "reportedMetric": "protein stability index", "resultNumber": 4.48}
{"mutantName": "R7A", "reportedMetric": "protein stability index", "resultNumber": 4.54}
{"mutantName": "T17Y", "reportedMetric": "protein stability index", "resultNumber": 2.87}
{"mutantName": "P19N", "reportedMetric": "protein stability index", "resultNumber": 4.11}
{"mutantName": "E8V", "reportedMetric": "protein stability index", "resultNumber": 1.75}
{"mutantName": "T12P", "reportedMetric": "protein stability index", "resultNumber": 4.49}
{"mutantName": "A21L", "reportedMetric": "protein stability index", "resultNumber": 3.38}
{"mutantName": "Y18G", "reportedMetric": "protein stability index", "resultNumber": 3.52}
{"mutantName": "K14Q", "reportedMetric": "protein stability index", "resultNumber": 4.21}
{"mutantName": "V13C", "reportedMetric": "protein stability index", "resultNumber": 4.12}
{"mutantName": "V6I", "reportedMetric": "protein stability index", "resultNumber": 3.89}
{"mutantName": "Y15E", "reportedMetric": "protein stability index", "resultNumber": 4.59}
{"mutantName": "K23A", "reportedMetric": "protein stability index", "resultNumber": 2.92}
{"mutantName": "K14S", "reportedMetric": "protein stability index", "resultNumber": 4.44}
{"mutantName": "P19H", "reportedMetric": "protein stability index", "resultNumber": 3.18}
{"mutantName": "T17P", "reportedMetric": "protein stability index", "resultNumber": 4.46}
{"mutantName": "K23F", "reportedMetric": "protein stability index", "resultNumber": 3.68}
{"mutantName": "E22N", "reportedMetric": "protein stability index", "resultNumber": 4.36}
{"mutantName": "Y18V", "reportedMetric": "protein stability index", "resultNumber": 4.24}
{"mutantName": "V13Y", "reportedMetric": "protein stability index", "resultNumber": 3.72}
{"mutantName": "Y4K", "reportedMetric": "protein stability index", "resultNumber": 5.03}
{"mutantName": "K23Y", "reportedMetric": "protein stability index", "resultNumber": 2.9}
{"mutantName": "E20S", "reportedMetric": "protein stability index", "resultNumber": 3.56}
{"mutantName": "K9S", "reportedMetric": "protein stability index", "resultNumber": 4.28}
{"mutantName": "Y18N", "reportedMetric": "protein stability index", "resultNumber": 4.63}
{"mutantName": "P19K", "reportedMetric": "protein stability index", "resultNumber": 4.19}
{"mutantName": "K14W", "reportedMetric": "protein stability index", "resultNumber": 1.68}
{"mutantName": "K14P", "reportedMetric": "protein stability index", "resultNumber": 4.09}
{"mutantName": "K23H", "reportedMetric": "protein stability index", "resultNumber": 4.15}
{"mutantName": "P2K", "reportedMetric": "protein stability index", "resultNumber": 4.35}
{"mutantName": "E8T", "reportedMetric": "protein stability index", "resultNumber": 3.43}
{"mutantName": "E11L", "reportedMetric": "protein stability index", "resultNumber": 4.01}
{"mutantName": "V6H", "reportedMetric": "protein stability index", "resultNumber": 4.58}
{"mutantName": "E20Q", "reportedMetric": "protein stability index", "resultNumber": 3.61}
{"mutantName": "A21R", "reportedMetric": "protein stability index", "resultNumber": 3.43}
{"mutantName": "P16T", "reportedMetric": "protein stability index", "resultNumber": 4.13}
{"mutantName": "T12D", "reportedMetric": "protein stability index", "resultNumber": 4.57}
{"mutantName": "E8I", "reportedMetric": "protein stability index", "resultNumber": 2.62}
{"mutantName": "T12E", "reportedMetric": "protein stability index", "resultNumber": 4.33}
{"mutantName": "R7D", "reportedMetric": "protein stability index", "resultNumber": 4.67}
